Value source: patent US20240383974A1

Target: T1, GARP-TGF-β complex (293-GARP/TGFβ stably transfected cells) (UniProt Q14392 20-662; P01137 30-390)
T1 construct: whole, on cells; Complex of GARP and (latent) TGF-β on the cell surface; also called 293-GARP/TGFβ cell; 293F-GAPR/TGFβ/αvβ6 cells
T1 sequence (Q14392 20-662, chain 1 of 2): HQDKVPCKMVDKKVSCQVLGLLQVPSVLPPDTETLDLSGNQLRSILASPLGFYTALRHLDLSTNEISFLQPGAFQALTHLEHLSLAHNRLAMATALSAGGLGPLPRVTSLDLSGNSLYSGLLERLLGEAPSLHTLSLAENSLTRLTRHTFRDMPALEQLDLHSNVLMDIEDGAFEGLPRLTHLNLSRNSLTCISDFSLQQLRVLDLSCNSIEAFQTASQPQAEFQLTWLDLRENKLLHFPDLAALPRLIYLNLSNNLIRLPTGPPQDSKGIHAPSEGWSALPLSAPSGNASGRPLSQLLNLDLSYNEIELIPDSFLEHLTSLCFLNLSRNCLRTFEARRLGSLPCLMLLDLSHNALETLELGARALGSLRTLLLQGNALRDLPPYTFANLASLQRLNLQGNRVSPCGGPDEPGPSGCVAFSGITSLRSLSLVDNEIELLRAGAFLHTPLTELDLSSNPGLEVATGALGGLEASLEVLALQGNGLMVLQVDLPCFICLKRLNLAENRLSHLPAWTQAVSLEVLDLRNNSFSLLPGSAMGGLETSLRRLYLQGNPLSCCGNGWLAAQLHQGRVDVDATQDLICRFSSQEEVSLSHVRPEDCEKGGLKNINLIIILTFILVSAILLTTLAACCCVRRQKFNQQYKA
T1 sequence (P01137 30-390, chain 2 of 2): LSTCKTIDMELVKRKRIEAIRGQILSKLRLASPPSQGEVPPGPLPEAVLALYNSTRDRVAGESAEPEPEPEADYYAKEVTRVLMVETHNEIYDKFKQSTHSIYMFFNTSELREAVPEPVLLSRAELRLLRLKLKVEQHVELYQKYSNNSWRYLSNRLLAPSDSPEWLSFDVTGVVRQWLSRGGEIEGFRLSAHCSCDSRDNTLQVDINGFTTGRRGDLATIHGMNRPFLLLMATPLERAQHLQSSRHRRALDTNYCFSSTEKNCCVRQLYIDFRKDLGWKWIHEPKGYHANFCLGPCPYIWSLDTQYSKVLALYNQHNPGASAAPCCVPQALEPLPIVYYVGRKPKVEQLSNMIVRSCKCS
Assay: FACS on 293-GARP/TGFβ cells
Quantity: EC50 (nM)
Answers are plain numbers, in nM.

Observe how each entry below is paired with its result.
- antibody m305-hu (antibody, V domains shown, Humanized m305) VH: QVQLVQSGAEVKKPGASVKVSCKTSGYTFTDYNMNWVKQAPGQGLEWIGDINPYSGGTIYNQKFKGRATLTTDTSTSTAYMELRSLRSDDTAVYYCARVSKGSGDYWGQGTLVTVSS VL: DIQMTQSPSSLSASVGDRVTITCRASQEISGYLSWLQQKPGGAPKRLIYAASTLDSGVPSRFSGSRSGTDYTLTISSLQPEDFATYYCLQYASYPTCTFGGGTKVEIK: 2.1
- antibody m202-hu (antibody, V domains shown, Humanized m202) VH: QVQLVQSGAEVKKPGASVKVSCKASGYTFTSYWMHWVKQAPGQGLEWIGNINPSNGDTNYNEKFKSKATLTVDKSTSTAYMELRSLRSDDTAVYYCARATYGSYGYFDVWGQGTLVTVSS VL: DIVLTQSPDSLAVSLGERATINCRASESVTIIGTNLIQWFQQKPGQPPKLLIYHASNLETGVPDRFSGSGSRTDFTLTISSLQAEDVAVYYCLQSRQIPRTFGGGTKVEIK: 2.5

Would you mind listing EC50 for each of the following binders?
1. antibody m107-hu (antibody, V domains shown, Humanized m107) VH: QVQLVQSGAEVKRPGASVKVSCKASGYTFSAYTIHWVKQRPGQGLEWIGYINPSNDFAKYIQKFKDKVTITADKSTSTAYMELNSLRSEDTAVYYCARVDYYGGSYRWYLDVWGQGTTVTVSS VL: DIVLTQSPATLSLSPGERATLSCRASQSISNNLHWYQQKPGEAPRLLIKYTSQSISGIPARFSGSGSGTDFTLTISSLEPEDFAVYFCQQSNSWPIFTFGQGTKLEIK
2. antibody m301-hu (antibody, V domains shown, Humanized m301) VH: QVQLQESGPGLVKPSGTLSLTCAVSGFSLTTYGVTWVRQPPGKGLEWIGLIWGDGTTDYHSTFISRLTISKDKSKNQVSLKLSSVTAADTAVYYCASYYFAMHYWGQGTLVTVSS VL: DIVMTQSPDSLAVSLGERATINCKSSQSLLNSRTQKNYLAWYQQKPGQSPKLLIYWASTRESGVPDRFSGSGSGTDFTLTISSLQAEDVAVYYCKQSYNLWTFGGGTKVEIK

1: 7.5; 2: 4
